The binders listed here are annotated with their cAMP release, % activity, 1 nM.
target: human GLP-1 receptor (human, UniProt P43220 24-463); assay: cell-based or functional assay
Sequence (P43220 24-463): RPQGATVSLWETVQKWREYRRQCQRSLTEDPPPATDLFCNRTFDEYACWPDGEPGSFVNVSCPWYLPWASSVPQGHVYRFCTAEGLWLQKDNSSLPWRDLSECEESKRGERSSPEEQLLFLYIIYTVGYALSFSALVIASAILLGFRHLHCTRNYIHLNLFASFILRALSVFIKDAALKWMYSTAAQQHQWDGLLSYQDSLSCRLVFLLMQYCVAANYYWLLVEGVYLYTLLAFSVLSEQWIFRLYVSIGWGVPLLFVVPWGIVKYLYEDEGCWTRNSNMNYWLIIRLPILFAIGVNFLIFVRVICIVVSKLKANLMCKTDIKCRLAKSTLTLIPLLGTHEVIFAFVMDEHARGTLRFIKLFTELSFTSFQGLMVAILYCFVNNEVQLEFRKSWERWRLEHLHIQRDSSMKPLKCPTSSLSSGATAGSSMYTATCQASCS
Starred links: 1 amine or outer side, 2 acyl side, 3 side chain; linkers in the order of their positions; H or OH if unused. Non-standard residues stand in square brackets, D forms with d. No end group written: not given here. *: point of attachment. NMe2F‑APPA = N-methyl-2-amino-5-(2-fluorophenyl)pentanoic acid, CN([C@@H](CCCc1ccccc1F)C(=O)[*:2])[*:1]; 2,4‑diF‑APPA = 2-amino-5-(2,4-difluorophenyl)pentanoic acid, O=C([C@H](CCCc1ccc(F)cc1F)N[*:1])[*:2]; ACPP = 2-amino-5-(3-chlorophenyl)pentanoic acid, O=C([C@H](CCCc1cccc(Cl)c1)N[*:1])[*:2]; 2CF3‑APPA = 2-amino-5-(2-(trifluoromethyl)phenyl)pentanoic acid; Bip(2'-Et-4'-OMe) = CCc1cc(OC)ccc1-c1ccc(C[C@H](N)C(=O)O)cc1; Leu(5,5,5,5',5',5'-F6) = N[C@@H](CC(C(F)(F)F)C(F)(F)F)C(=O)O; Nva(5-(3,5-Me2Ph)) = Cc1cc(C)cc(CCC[C@H](N)C(=O)O)c1; αMePhe(2-F) = C[C@](N)(Cc1ccccc1F)C(=O)O; NMeBip(OMe) = N-methylated Bip(OMe); hhPhe = N[C@@H](CCCc1ccccc1)C(=O)O; aThr = C[C@H](O)[C@H](N)C(=O)O; αMeP = C[C@@]1(C(=O)O)CCCN1; CNB = not defined here; Ac3c = NC1(C(=O)O)CC1; Aib = CC(C)(N)C(=O)O; Moc = COC(=O)*

Ac-H[Aib][Leu(5,5,5,5',5',5'-F6)]GT[αMePhe(2-F)]TSD[Bip(2'-Et-4'-OMe)][hhPhe] [Seq. ID. No. 210: CH3CO-H-Aib-(Hfl)-GT-(α-Me-2F-Phe)-TSD-Bip(OMe)-(APPA)]; 46%
H[Aib][CNB]G[aThr][αMePhe(2-F)][aThr]SD[NMeBip(OMe)][NMe2F‑APPA] (reading uncertain) [Seq. ID. No. 144: H-Aib-(CNB)-G-T(allo)-(α-Me-2F-Phe)-T(allo)-SD-((NMe)Bip(OMe))-((NMe)(2F-APPA))]; 55%
H[αMeP]QGTFTSD[Bip(2'-Et-4'-OMe)][ACPP] [Seq. ID. No. 11: H-(α-Me-Pro)-QGTFTSD-Bip(OMe)-(ACPP)]; 99%

Given the entry H[Ac3c]QGTFTSD[Bip(2'-Et-4'-OMe)][Nva(5-(3,5-Me2Ph))] [Seq. ID. No. 22: H-(ACP)-QGTFTSD-Bip(OMe)-(ADMP)] , report its measured cAMP release, % activity, 1 nM.
99%

Reported cAMP release, % activity, 1 nM for Moc-H[Aib]QGT[αMePhe(2-F)]TSD[Bip(2'-Et-4'-OMe)][hhPhe] (also: reduced (CH2) bonds between 9-10 and 10-11) [Seq. ID. No. 194: CH3OCO-H-Aib-QGT-(α-Me-2F-Phe)-TSD-(CH2)-Bip(OMe)-(CH2)-(APPA)] : what is it?
38%

Fill in: cAMP release, % activity, 1 nM of Moc-H[Aib][CNB]GT[αMePhe(2-F)]TSD[Bip(2'-Et-4'-OMe)][hhPhe] (reading uncertain) [Seq. ID. No. 206: CH3OCO-H-Aib-(CNB)-GT-(α-Me-2F-Phe)-TSD-Bip(OMe)-(APPA)] is ___
39%

Suppose we examine the binder H[Aib]QGTFTSD[Bip(2'-Et-4'-OMe)][2,4‑diF‑APPA] [Seq. ID. No. 62: H-Aib-QGTFTSD-Bip(OMe)-(2,4-diF-APPA)] ; what cAMP release, % activity, 1 nM value has been reported?
38%

GET /values?readout=cAMP release, % activity, 1 nM&item= HSQGTFTSD[Bip(2'-Et-4'-OMe)][2CF3‑APPA] [Seq. ID. No. 47: HSQGTFTSD-Bip(OMe)-(2CF3-APPA)]
55%
